Data origin: the kinase profiling compilation of Christmann-Franck et al. (2016)

For each of the compounds below, state its residual activity.
- Target Entity: NEK1 (human)
- Measurement Description: radiometric filter-binding kinase assay, Kinase HotSpot
- Condition Description: compound 0.5 µM; ATP 10 µM
One number for each entry, in %.

A selection of reference data follows.
*Q* Item under review: CNc1cc2c(Nc3cccc(Br)c3)ncnc2cn1 . Reported residual activity?
*A* 70.3

*Q* // repeat for CCN(CC)C(=O)c1ccc(Nc2nc(OCC3CCCCC3)c3nc[nH]c3n2)cc1 and report
*A* 53.1

*Q* Can you handle CCC(=O)Nc1ccc2ncnc(Nc3cccc(Br)c3)c2c1 next?
*A* 76.9

*Q* Then this compound: Cc1ccc(NC2=CC(=O)c3sc(C)nc3C2=O)cc1
*A* 76.5

*Q* What about Oc1cccc(-c2nc(N3CCOCC3)c3oc4ncccc4c3n2)c1 ?
*A* 77.8

*Q* Now this one: CC(C)N(CCC(=O)c1ccc2ccccc2c1)Cc1ccccc1
*A* 81.9

Here are 4 compounds. What values of residual activity were reported for them?
1. O=C(Nc1cccc(Nc2nccc(Nc3cccc(C(F)(F)F)c3)n2)c1)C1CC1
2. CC(=O)c1ccc(N2CCOCC2)cc1O
3. Nc1ncnc2[nH]nc(Nc3ccc(F)cc3)c12
4. O=S(=O)(c1cccc2cnccc12)N1CCCNCC1

*A*
1: 82.8; 2: 114; 3: 94; 4: 90.3

---

- Target Entity: UniProtKB Q9UPE1
- Sequence (Q9UPE1 whole entry, looked up): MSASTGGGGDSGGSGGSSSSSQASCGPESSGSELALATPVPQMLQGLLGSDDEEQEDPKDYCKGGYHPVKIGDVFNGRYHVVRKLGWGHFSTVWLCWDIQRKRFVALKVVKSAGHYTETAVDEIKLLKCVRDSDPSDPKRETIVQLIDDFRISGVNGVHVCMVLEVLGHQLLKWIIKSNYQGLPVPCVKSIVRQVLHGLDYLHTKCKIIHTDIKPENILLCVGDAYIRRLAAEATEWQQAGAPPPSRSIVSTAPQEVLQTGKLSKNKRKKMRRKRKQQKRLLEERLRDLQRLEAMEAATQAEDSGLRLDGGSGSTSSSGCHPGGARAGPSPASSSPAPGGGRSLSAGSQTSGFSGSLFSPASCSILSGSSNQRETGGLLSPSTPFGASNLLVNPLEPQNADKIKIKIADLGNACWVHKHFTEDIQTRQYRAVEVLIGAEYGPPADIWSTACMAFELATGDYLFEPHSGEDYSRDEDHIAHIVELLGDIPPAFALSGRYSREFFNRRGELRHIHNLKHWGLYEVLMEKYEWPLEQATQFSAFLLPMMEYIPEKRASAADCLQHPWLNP
- Measurement Description: radiometric filter-binding kinase assay, Kinase HotSpot
- Condition Description: compound 0.5 µM; ATP 10 µM
Property Label: residual activity (%)
Answers are plain numbers, in %.

Solved cases below.
*Q* So what's the measured residual activity for this one? Nc1ncnc2c1c(-c1ccc(Oc3ccccc3)cc1)cn2C1CCCC1
*A* 95.7

*Q* Now the same for CCN(CC)CCNC(=O)c1c(C)[nH]c(/C=C2\C(=O)Nc3ccc(F)cc32)c1C
*A* 102

*Q* Repeat for the following compound: CC#CC(=O)Nc1cc2c(Nc3ccc(F)c(Cl)c3)ncnc2cn1
*A* 101

*Q* Try Nc1ccc2ncnc(NCCc3ccc(Oc4ccccc4)cc3)c2c1 next.
*A* 96.6

*Q* Now try O=C1NC(=O)C(c2cn(CCCn3ccnc3)c3ccccc23)=C1Nc1ccccc1 .
*A* 92.5

*Q* Now the same for CCCC(=O)Oc1ccc2[nH]c(C(=O)c3cc4ccccc4[nH]3)cc2c1
*A* 93.2

*Q* Also check c1ccc(-c2n[nH]cc2-c2ccnc3ccccc23)nc1
*A* 88.9

*Q* Item: COc1cc2ncnc(Nc3cccc(Cl)c3)c2cc1OC
*A* 90.1

Proceeding to the next compound to report its residual activity.
*Q* I'd like to know its residual activity. The compound in question is O=C1NC(=O)/C(=C/c2ccc3c(c2)OC(F)(F)O3)S1
*A* 95.4

---

- Target Entity: ERBB4 (human)
- Measurement Description: radiometric filter-binding kinase assay, Kinase HotSpot
- Condition Description: compound 0.5 µM; ATP 10 µM
Property Label: residual activity (%)
Numbers only, in %.

Please review the entries below; each comes with its answer.
*Q* Report residual activity for O=C1NC(=O)/C(=C/c2ccc3c(c2)OC(F)(F)O3)S1 tested on ERBB4 (human).
*A* 99.5

*Q* Another: Nc1ncnc2[nH]nc(Nc3ccc(F)cc3)c12
*A* 121

*Q* Next up: O=C1NC(=O)c2c1c1c3ccccc3n3c1c1c2c2ccccc2n1C1CCC3O1
*A* 72.5

*Q* And for Cc1[nH]c(/C=C2\C(=O)Nc3ccc(S(=O)(=O)N(C)c4cccc(Cl)c4)cc32)c(C)c1C(=O)N1CCN(C)CC1 ?
*A* 105

*Q* Note, next up: c1ccc(-c2n[nH]c3c2oc2ccccc23)cc1
*A* 89.7

*Q* Then what about the compound CC[n+]1c(/C=C/N(C)c2ccccc2)n(-c2ccccc2)c2ccc(-c3nc4ccccc4s3)cc21 ?
*A* 102

*Q* Query O=c1cc(N2CCOCC2)oc2c1ccc1ccccc12 next
*A* 101

*Q* Next: CNc1cc2c(Nc3cccc(Br)c3)ncnc2cn1
*A* 58.6

*Q* Then this compound: Nc1ccc2ncnc(NCCc3ccc(Oc4ccccc4)cc3)c2c1
*A* 70.2

*Q* Same again, this time with CCOC(=O)c1c(C)[nH]c(/C=C2\C(=O)Nc3ccccc32)c1C
*A* 71.2

Proceed to the following item.
*Q* Find residual activity (ERBB4 (human)) for the entry O=S(=O)(c1cccc2cnccc12)N1CCCNCC1
*A* 101

---

- Target Entity: WNK3 (human) (UniProt Q9BYP7)
- Sequence (Q9BYP7 whole entry, looked up): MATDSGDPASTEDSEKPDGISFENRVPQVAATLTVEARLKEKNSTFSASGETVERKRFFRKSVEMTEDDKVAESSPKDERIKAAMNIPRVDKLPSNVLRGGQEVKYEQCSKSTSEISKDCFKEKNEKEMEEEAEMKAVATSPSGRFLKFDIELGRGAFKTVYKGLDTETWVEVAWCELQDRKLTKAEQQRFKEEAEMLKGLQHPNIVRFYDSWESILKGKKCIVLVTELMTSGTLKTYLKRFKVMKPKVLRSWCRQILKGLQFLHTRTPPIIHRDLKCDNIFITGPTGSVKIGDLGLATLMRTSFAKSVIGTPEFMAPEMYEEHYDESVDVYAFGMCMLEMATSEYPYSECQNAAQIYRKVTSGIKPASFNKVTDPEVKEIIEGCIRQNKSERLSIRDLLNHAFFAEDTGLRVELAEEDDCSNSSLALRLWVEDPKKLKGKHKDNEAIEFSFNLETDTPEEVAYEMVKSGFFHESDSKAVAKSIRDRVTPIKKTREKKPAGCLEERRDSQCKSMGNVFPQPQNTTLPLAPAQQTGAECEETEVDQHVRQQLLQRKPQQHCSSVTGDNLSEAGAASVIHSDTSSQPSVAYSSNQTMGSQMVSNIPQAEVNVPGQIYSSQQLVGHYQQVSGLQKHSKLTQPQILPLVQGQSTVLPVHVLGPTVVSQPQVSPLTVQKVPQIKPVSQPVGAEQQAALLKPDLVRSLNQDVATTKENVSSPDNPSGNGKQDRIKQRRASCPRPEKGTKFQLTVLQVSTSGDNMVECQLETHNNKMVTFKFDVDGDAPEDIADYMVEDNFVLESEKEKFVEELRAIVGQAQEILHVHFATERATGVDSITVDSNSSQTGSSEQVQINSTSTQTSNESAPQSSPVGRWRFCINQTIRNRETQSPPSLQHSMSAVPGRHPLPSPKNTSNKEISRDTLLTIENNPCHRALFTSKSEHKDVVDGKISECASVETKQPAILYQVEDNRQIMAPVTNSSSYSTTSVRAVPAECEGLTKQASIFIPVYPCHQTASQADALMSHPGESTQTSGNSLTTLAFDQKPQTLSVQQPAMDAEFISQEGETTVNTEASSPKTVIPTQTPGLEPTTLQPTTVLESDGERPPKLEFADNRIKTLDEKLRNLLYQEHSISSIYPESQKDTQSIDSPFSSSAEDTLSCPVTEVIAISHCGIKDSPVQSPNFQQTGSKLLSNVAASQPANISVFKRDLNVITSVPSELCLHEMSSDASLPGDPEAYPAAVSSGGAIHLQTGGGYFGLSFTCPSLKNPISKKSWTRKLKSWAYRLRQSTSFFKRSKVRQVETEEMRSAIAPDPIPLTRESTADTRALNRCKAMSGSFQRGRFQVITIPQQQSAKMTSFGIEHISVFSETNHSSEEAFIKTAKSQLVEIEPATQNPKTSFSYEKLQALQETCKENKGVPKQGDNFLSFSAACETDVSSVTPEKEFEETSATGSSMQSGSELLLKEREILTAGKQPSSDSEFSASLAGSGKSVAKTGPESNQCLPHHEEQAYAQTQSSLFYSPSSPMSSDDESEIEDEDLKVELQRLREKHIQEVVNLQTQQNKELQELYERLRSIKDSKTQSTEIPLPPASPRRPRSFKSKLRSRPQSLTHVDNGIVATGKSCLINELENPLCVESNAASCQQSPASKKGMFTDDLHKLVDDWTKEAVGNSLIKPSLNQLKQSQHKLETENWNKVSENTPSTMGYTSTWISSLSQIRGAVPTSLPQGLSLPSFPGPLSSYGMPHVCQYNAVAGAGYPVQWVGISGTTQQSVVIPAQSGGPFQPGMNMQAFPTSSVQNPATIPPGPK
- Measurement Description: radiometric filter-binding kinase assay, Kinase HotSpot
- Condition Description: compound 0.5 µM; ATP 10 µM
I'd be grateful if you could share measured residual activity for these entries.
The reply must contain the numeric value and, after it, the unit.

Below, each entry is followed by its recorded residual activity result.
*Q* Fill in: residual activity of COc1ccc2c(c[n+](C)c3c4cc5c(cc4ccc23)OCO5)c1OC is ___
*A* 101%

*Q* Moving on to O=C1NC(=O)C(c2cn(CCCn3ccnc3)c3ccccc23)=C1Nc1ccccc1
*A* 100%

*Q* Now the compound N#C/C(=C(/N)Sc1ccc(N)cc1)c1ccccc1C(F)(F)F
*A* 94.9%

Turning now to a further record.
*Q* What measured residual activity goes with CO[C@H]1CC2CC[C@@H](C)[C@@](O)(O2)C(=O)C(=O)N2CCCC[C@H]2C(=O)OC([C@H](C)C[C@@H]2CC[C@@H](O)[C@H](OC)C2)CC(=O)[C@H](C)/C=C(\C)[C@@H](O)[C@@H](OC)C(=O)[C@H](C)C[C@H](C)/C=C/C=C/C=C/1C (some centres undefined) ?
*A* 102%

---

I'd appreciate it if you could supply residual activity values for the items below.
- Target Entity: MLTK (human)
- Measurement Description: radiometric filter-binding kinase assay, Kinase HotSpot
- Condition Description: compound 0.5 µM; ATP 10 µM
Give bare numbers, in %.

*Q* Quick check: residual activity on MLTK (human), item CCCC(=O)Oc1ccc2[nH]c(C(=O)c3cc4ccccc4[nH]3)cc2c1 ?
*A* 104

*Q* Would you kindly repeat that for CCN(CC)CCNC(=O)c1c(C)[nH]c(/C=C2\C(=O)Nc3ccc(Cl)cc32)c1C ?
*A* 95.8

Here are 4 compounds. What values of residual activity were reported for them?
1. O=c1cc(N2CCOCC2)oc2c1ccc1ccccc12
2. Nc1ncnc2[nH]nc(Nc3ccc(F)cc3)c12
3. Nc1cccc(-c2cc3c(Oc4cccc(O)c4)ncnc3[nH]2)c1
4. O=C1Nc2ccc(Cl)cc2/C1=C/c1cc(Cl)c(O)c(Cl)c1

*A*
1. 98
2. 88
3. 13.9
4. 77.4

Please state residual activity for every compound in the list that follows.
1. c1ccc(-c2n[nH]c3c2oc2ccccc23)cc1
2. CCN(CC)C(=O)c1ccc(Nc2nc(OCC3CCCCC3)c3nc[nH]c3n2)cc1
3. COc1cc2ncnc(Nc3cccc(Cl)c3)c2cc1OC
4. Nc1ncnc2c1c(-c1ccc(Oc3ccccc3)cc1)cn2C1CCCC1
5. CC(=O)c1ccc(N2CCOCC2)cc1O

*A*
1. 96.2
2. 91.4
3. 99.3
4. 70.3
5. 97.8

---

- Target Entity: AXL (human)
- Measurement Description: radiometric filter-binding kinase assay, Kinase HotSpot
- Condition Description: compound 0.5 µM; ATP 10 µM
Give residual activity for every item shown.
One number for each entry, in %.

Take each entry in turn and give its residual activity.
1. CCN(CC)CCNC(=O)c1c(C)[nH]c(/C=C2\C(=O)Nc3ccc(Cl)cc32)c1C
2. Nc1cccc(-c2cc3c(Oc4cccc(O)c4)ncnc3[nH]2)c1
3. CO[C@H]1CC2CC[C@@H](C)[C@@](O)(O2)C(=O)C(=O)N2CCCC[C@H]2C(=O)OC([C@H](C)C[C@@H]2CC[C@@H](O)[C@H](OC)C2)CC(=O)[C@H](C)/C=C(\C)[C@@H](O)[C@@H](OC)C(=O)[C@H](C)C[C@H](C)/C=C/C=C/C=C/1C (some centres undefined)

*A*
1: 25.2; 2: 75.9; 3: 99.5

*Q* Please report the recorded residual activity for N#C/C(=C(/N)Sc1ccc(N)cc1)c1ccccc1C(F)(F)F .
*A* 119

---

- Target Entity: TYK2 JH1 catalytic (human)
- Measurement Description: radiometric filter-binding kinase assay, Kinase HotSpot
- Condition Description: compound 0.5 µM; ATP 10 µM
Please note: True applies when residual activity is 90% or greater, and False applies otherwise.

*Q* Hi, just wondering whether O=C(Nc1cccc(Nc2nccc(Nc3cccc(C(F)(F)F)c3)n2)c1)C1CC1 shows residual activity of 90% or higher.
*A* False

Next:
*Q* Check the entry COc1ccc2c(c[n+](C)c3c4cc5c(cc4ccc23)OCO5)c1OC : does residual activity equal or exceed 90%?
*A* True

*Q* Input O=C1Nc2ccc(Cl)cc2/C1=C/c1cc(Cl)c(O)c(Cl)c1
*A* False

*Q* Repeat with N#C/C(=C(/N)Sc1ccc(N)cc1)c1ccccc1C(F)(F)F
*A* True

*Q* Same question, N#CC(C#N)=C(N)/C(C#N)=C/c1ccc(O)cc1 this time
*A* True
